Source listed as the NIST ThermoML archive (doi:10.1021/je900660x).

TEST: molar heat capacity at constant pressure
CONDITIONS: 298.15 K; 101.33 kPa; Liquid; Large sample (1 g) DSC
MEASURE: molar heat capacity at constant pressure (J/K/mol)

Worked examples, 4 compounds total:
CCCC[P+](CCCC)(CCCC)CCCC.NCCS(=O)(=O)[O-] [tetrabutylphosphonium 2-aminoethanesulfonate] = 994.6
CCCC[P+](CCCC)(CCCC)CCCC.C[C@@H](O)[C@H](N)C(=O)[O-] [tetrabutylphosphonium L-threoninate] = 961.3
CCCC[P+](CCCC)(CCCC)CCCC.N[C@@H](CO)C(=O)[O-] [tetrabutylphosphonium L-serinate] = 748.5
CCCC[N+](C)(CCCC)CCCC.NCCS(=O)(=O)[O-] [N,N-dibutyl-N-methyl-1-butanaminium 2-aminoethanesulfonate] = 826.9

[P] CCCC[P+](CCCC)(CCCC)CCCC.N[C@@H](CS)C(=O)[O-] [tetrabutylphosphonium L-cysteinate]
[Q] CCCC[N+](C)(CCCC)CCCC.N[C@@H](CO)C(=O)[O-] [N,N-dibutyl-N-methylbutanaminium L-serinate]
Param metric = molar heat capacity at constant pressure; output whichever of P , Q has the minimum value. Give the label of your selection. Q
